assay: Topical administration (eye drops) of formulation #340, rapamycin levels in blood, cornea, retina choroid, sclera and vitreous (Tables 3-6); type: in vivo; conditions: rabbit, vitreous, 2 drops (40 μl per drop) on one eye (right eye, OD), formulation #340 topical, Group II (two drops once a day on one eye, one time), OD, day 1, n = 1, read-out: Rapamycin level, vitreous

- compound: "CO[C@H]1C[C@@H]2CC[C@@H](C)[C@@](O)(O2)C(=O)C(=O)N2CCCC[C@H]2C(=O)O[C@H]([C@H](C)C[C@@H]2CC[C@@H](O)[C@H](OC)C2)CC(=O)[C@H](C)/C=C(\\C)[C@@H](O)[C@@H](OC)C(=O)[C@H](C)C[C@H](C)/C=C/C=C/C=C/1C [Rapamycin, rapamycin]"
  concentration at 1 day (ng/mL): 2.06

###

assay: Topical administration (eye drops) of formulation #340, rapamycin levels in blood, cornea, retina choroid, sclera and vitreous (Tables 3-6); type: in vivo; details: rabbit, vitreous, 2 drops (40 μl per drop) per eye, both eyes, twice a day, formulation #340 topical, Group I (two drops twice a day on both eyes, one time), day 3, n = 2, read-out: Rapamycin level, vitreous

- structure: "CO[C@H]1C[C@@H]2CC[C@@H](C)[C@@](O)(O2)C(=O)C(=O)N2CCCC[C@H]2C(=O)O[C@H]([C@H](C)C[C@@H]2CC[C@@H](O)[C@H](OC)C2)CC(=O)[C@H](C)/C=C(\\C)[C@@H](O)[C@@H](OC)C(=O)[C@H](C)C[C@H](C)/C=C/C=C/C=C/1C"
  concentration at 3 day (ng/mL): 3.03

###

assay: Topical administration (eye drops) of formulation #340, rapamycin levels in blood, cornea, retina choroid, sclera and vitreous (Tables 3-6); type: in vivo; details: rabbit, vitreous, 2 drops (40 μl per drop) per eye, both eyes, formulation #340 topical, Group III (two drops once a day on both eyes for 6 days), day 12, n = 2, read-out: Rapamycin level, vitreous
measured.endpoint: concentration at 12 day

- structure: "CO[C@H]1C[C@@H]2CC[C@@H](C)[C@@](O)(O2)C(=O)C(=O)N2CCCC[C@H]2C(=O)O[C@H]([C@H](C)C[C@@H]2CC[C@@H](O)[C@H](OC)C2)CC(=O)[C@H](C)/C=C(\\C)[C@@H](O)[C@@H](OC)C(=O)[C@H](C)C[C@H](C)/C=C/C=C/C=C/1C"
  recorded.result: "1.46 ng/mL"

###

assay: Topical administration (eye drops) of formulation #340, rapamycin levels in blood, cornea, retina choroid, sclera and vitreous (Tables 3-6); type: in vivo; conditions: rabbit, vitreous, 2 drops (40 μl per drop) on one eye (right eye, OD), formulation #340 topical, Group II (two drops once a day on one eye, one time), OD, day 2, n = 1, read-out: Rapamycin level, vitreous

- molecule: "CO[C@H]1C[C@@H]2CC[C@@H](C)[C@@](O)(O2)C(=O)C(=O)N2CCCC[C@H]2C(=O)O[C@H]([C@H](C)C[C@@H]2CC[C@@H](O)[C@H](OC)C2)CC(=O)[C@H](C)/C=C(\\C)[C@@H](O)[C@@H](OC)C(=O)[C@H](C)C[C@H](C)/C=C/C=C/C=C/1C [Rapamycin, rapamycin]"
  concentration at 2 day, ng/mL: 5.01

###

assay: Topical administration (eye drops) of formulation #340, rapamycin levels in blood, cornea, retina choroid, sclera and vitreous (Tables 3-6); assay type: in vivo; settings: rabbit, sclera, 2 drops (40 μl per drop) per eye, both eyes, twice a day, formulation #340 topical, Group I (two drops twice a day on both eyes, one time), day 2, n = 2, read-out: Rapamycin level, sclera

- structure: "CO[C@H]1C[C@@H]2CC[C@@H](C)[C@@](O)(O2)C(=O)C(=O)N2CCCC[C@H]2C(=O)O[C@H]([C@H](C)C[C@@H]2CC[C@@H](O)[C@H](OC)C2)CC(=O)[C@H](C)/C=C(\\C)[C@@H](O)[C@@H](OC)C(=O)[C@H](C)C[C@H](C)/C=C/C=C/C=C/1C"
  concentration at 2 day: "751 ng/g"

###

assay: Topical administration (eye drops) of formulation #340, rapamycin levels in blood, cornea, retina choroid, sclera and vitreous (Tables 3-6); type: in vivo; details: rabbit, sclera, 2 drops (40 μl per drop) on one eye (right eye, OD), formulation #340 topical, Group II (two drops once a day on one eye, one time), OD, day 2, n = 1, read-out: Rapamycin level, sclera

- structure: "CO[C@H]1C[C@@H]2CC[C@@H](C)[C@@](O)(O2)C(=O)C(=O)N2CCCC[C@H]2C(=O)O[C@H]([C@H](C)C[C@@H]2CC[C@@H](O)[C@H](OC)C2)CC(=O)[C@H](C)/C=C(\\C)[C@@H](O)[C@@H](OC)C(=O)[C@H](C)C[C@H](C)/C=C/C=C/C=C/1C"
  concentration at 2 day / ng/g: 1350

###

experiment: Topical administration (eye drops) of formulation #340, rapamycin levels in blood, cornea, retina choroid, sclera and vitreous (Tables 3-6); type: in vivo; settings: rabbit, vitreous, 2 drops (40 μl per drop) on one eye (right eye, OD), formulation #340 topical, Group II (two drops once a day on one eye, one time), OD, day 3, n = 1, read-out: Rapamycin level, vitreous

- structure: "CO[C@H]1C[C@@H]2CC[C@@H](C)[C@@](O)(O2)C(=O)C(=O)N2CCCC[C@H]2C(=O)O[C@H]([C@H](C)C[C@@H]2CC[C@@H](O)[C@H](OC)C2)CC(=O)[C@H](C)/C=C(\\C)[C@@H](O)[C@@H](OC)C(=O)[C@H](C)C[C@H](C)/C=C/C=C/C=C/1C"
  concentration at 3 day / ng/mL: 3.96

###

assay: Topical administration (eye drops) of formulation #340, rapamycin levels in blood, cornea, retina choroid, sclera and vitreous (Tables 3-6); type: in vivo; settings: rabbit, vitreous, 2 drops (40 μl per drop) per eye, both eyes, formulation #340 topical, Group III (two drops once a day on both eyes for 6 days), day 10, n = 2, read-out: Rapamycin level, vitreous
measured.endpoint: concentration at 10 day (ng/mL)

- molecule: "CO[C@H]1C[C@@H]2CC[C@@H](C)[C@@](O)(O2)C(=O)C(=O)N2CCCC[C@H]2C(=O)O[C@H]([C@H](C)C[C@@H]2CC[C@@H](O)[C@H](OC)C2)CC(=O)[C@H](C)/C=C(\\C)[C@@H](O)[C@@H](OC)C(=O)[C@H](C)C[C@H](C)/C=C/C=C/C=C/1C [Rapamycin, rapamycin]"
  recorded.result: 7.9

###

assay: Topical administration (eye drops) of formulation #340, rapamycin levels in blood, cornea, retina choroid, sclera and vitreous (Tables 3-6); type: in vivo; details: rabbit, sclera, 2 drops (40 μl per drop) per eye, both eyes, formulation #340 topical, Group III (two drops once a day on both eyes for 6 days), day 12, n = 2, read-out: Rapamycin level, sclera
measured.endpoint: concentration at 12 day (ng/g)

- molecule: "CO[C@H]1C[C@@H]2CC[C@@H](C)[C@@](O)(O2)C(=O)C(=O)N2CCCC[C@H]2C(=O)O[C@H]([C@H](C)C[C@@H]2CC[C@@H](O)[C@H](OC)C2)CC(=O)[C@H](C)/C=C(\\C)[C@@H](O)[C@@H](OC)C(=O)[C@H](C)C[C@H](C)/C=C/C=C/C=C/1C [Rapamycin, rapamycin]"
  measured.endpoint: "concentration at 12 day"
  units.of.measure: "ng/g"
  recorded.result: 131

###

experiment: Topical administration (eye drops) of formulation #340, rapamycin levels in blood, cornea, retina choroid, sclera and vitreous (Tables 3-6); format: in vivo; conditions: rabbit, sclera, 2 drops (40 μl per drop) per eye, both eyes, formulation #340 topical, Group III (two drops once a day on both eyes for 6 days), day 10, n = 2, read-out: Rapamycin level, sclera

- structure: "CO[C@H]1C[C@@H]2CC[C@@H](C)[C@@](O)(O2)C(=O)C(=O)N2CCCC[C@H]2C(=O)O[C@H]([C@H](C)C[C@@H]2CC[C@@H](O)[C@H](OC)C2)CC(=O)[C@H](C)/C=C(\\C)[C@@H](O)[C@@H](OC)C(=O)[C@H](C)C[C@H](C)/C=C/C=C/C=C/1C"
  units.of.measure: "ng/g"
  concentration at 10 day: 613

###

assay: Topical administration (eye drops) of formulation #340, rapamycin levels in blood, cornea, retina choroid, sclera and vitreous (Tables 3-6); type: in vivo; conditions: rabbit, sclera, 2 drops (40 μl per drop) per eye, both eyes, formulation #340 topical, Group III (two drops once a day on both eyes for 6 days), day 14, n = 2, read-out: Rapamycin level, sclera
measured.endpoint: concentration at 14 day (ng/g)

- molecule: "CO[C@H]1C[C@@H]2CC[C@@H](C)[C@@](O)(O2)C(=O)C(=O)N2CCCC[C@H]2C(=O)O[C@H]([C@H](C)C[C@@H]2CC[C@@H](O)[C@H](OC)C2)CC(=O)[C@H](C)/C=C(\\C)[C@@H](O)[C@@H](OC)C(=O)[C@H](C)C[C@H](C)/C=C/C=C/C=C/1C [Rapamycin, rapamycin]"
  measured.endpoint: "concentration at 14 day"
  units.of.measure: "ng/g"
  recorded.result: 420
